tested on: KRAS-mutant PDC multicell tumor spheroid viability; assay: Anticancer human tumor 521955-158-R2-J5-PDC patient-derived pancreatic carcinoma cell line growth inhibition [KRAS2]; settings: second compound 0.1 µM; first compound 0.0316 µM; hits give low values
Assignment: determine reported viability, T/C for the given compounds.

Previously resolved entries follow.
COMPOUND	viability, T/C
CC(C)NCC(C(=O)N1CCN(c2ncnc3c2C(C)CC3O)CC1)c1ccc(Cl)cc1 (stereo not given) + C=CC(=O)N1CCN(c2nc(OCC3CCCN3C)nc3c2CCN(c2cccc4cccc(C)c24)C3)CC1CC#N	103%
Cn1nccc1Nc1nccc(-c2cc3c(s2)C(C)(C)N(CCN2CCOCC2)C3=O)n1 + CC1OCC2(CCN(c3cnc(Sc4ccnc(N)c4Cl)c(N)n3)CC2)C1N	94.1%
COC(=O)c1ccc2c(C(=Nc3ccc(N(C)C(=O)CN4CCN(C)CC4)cc3)c3ccccc3)c(O)[nH]c2c1 + COc1cc2nc(C)nc(NC(C)c3cc(N)cc(C(F)(F)F)c3)c2cc1OC1CCOC1	113%

Fill in viability, T/C for each of the 2 compounds listed.
1. COc1cc2nccc(Oc3ccc(NC(=O)C4(C(=O)Nc5ccc(F)cc5)CC4)cc3)c2cc1OC + C=CC(=O)N1CCN(c2nc(OCC3CCCN3C)nc3c2CCN(c2cccc4cccc(C)c24)C3)CC1CC#N
2. CC1COCCN1c1cc(-c2ccnn2C)c2ccnc(-c3ccn[nH]3)c2n1 (stereo not given) + CC1OCC2(CCN(c3cnc(Sc4ccnc(N)c4Cl)c(N)n3)CC2)C1N

a:
1. 105%
2. 27.6%

====

tested on: KRAS-mutant PDC multicell tumor spheroid viability; test: Anticancer human tumor 521955-158-R2-J5-PDC cell line growth inhibition [KRAS2]; details: second compound 0.1 µM; first compound 0.0316 µM; hits give low values;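 also: viability read after seven days of drug exposure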
Assignment: determine reported viability, T/C for the given molecules.

MOLECULE	TESTED TARGET	RESULT
CC1(C)CCC(CN2CCN(c3ccc(C(=O)NS(=O)(=O)c4ccc(NCC5CCOCC5)c([N+](=O)[O-])c4)c(Oc4cnc5[nH]ccc5c4)c3)CC2)=C(c2ccc(Cl)cc2)C1 + CC1OCC2(CCN(c3cnc(Sc4ccnc(N)c4Cl)c(N)n3)CC2)C1N	KRAS-mutant PDC multicell tumor spheroid viability	70.5%

Fill in viability, T/C for each of the 4 molecules listed.
1. CCNC(=O)CC1N=C(c2ccc(Cl)cc2)c2cc(OC)ccc2-n2c(C)nnc21 (stereo not given) + C=CC(=O)N1CCN(c2nc(OCC3CCCN3C)nc3c2CCN(c2cccc4cccc(C)c24)C3)CC1CC#N
2. CC(C)n1nc(-c2ccc3oc(N)nc3c2)c2c(N)ncnc21 + CC1OCC2(CCN(c3cnc(Sc4ccnc(N)c4Cl)c(N)n3)CC2)C1N
3. CC1COCCN1c1cc(-c2ccnn2C)c2ccnc(-c3ccn[nH]3)c2n1 (stereo not given) + CNCc1ccccc1-c1csc(C(C)Nc2nc(C)nc3cc(OC)c(OC)cc23)c1
4. CCN1CCN(Cc2ccc(Nc3ncc(F)c(-c4cc(F)c5nc(C)n(C(C)C)c5c4)n3)nc2)CC1 + C=CC(=O)N1CCN(c2nc(OCC3CCCN3C)nc3c2CCN(c2cccc4cccc(C)c24)C3)CC1CC#N

a:
96.3%
32.8%
48.3%
87.5%

====

Assignment: determine reported viability, T/C for the given compounds.
system: KRAS-mutant PDC multicell tumor spheroid viability; test: Anticancer human tumor 521955-158-R2-J5-PDC cell line growth inhibition [KRAS2]; settings: second compound 0.1 µM; first compound 3.16 µM; hits give low values;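 also: viability read after seven days of drug exposure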
Answers are plain numbers, in %.

COMPOUND	TESTED TARGET	viability, T/C (%)
CC(=O)OC12COC1CC(O)C1(C)C(=O)C(O)C3=C(C)C(OC(=O)C(O)C(NC(=O)OC(C)(C)C)c4ccccc4)CC(O)(C(OC(=O)c4ccccc4)C21)C3(C)C (stereo not given) + C=CC(=O)N1CCN(c2nc(=O)n(-c3c(C)ccnc3C(C)C)c3nc(-c4c(O)cccc4F)c(F)cc23)C(C)C1	KRAS-mutant PDC multicell tumor spheroid viability	17.4

Fill in viability, T/C for each of the 5 compounds listed.
1. CC1COCCN1c1cc(-c2ccnn2C)c2ccnc(-c3ccn[nH]3)c2n1 (stereo not given) + COc1cc2nc(C)nc(NC(C)c3cc(N)cc(C(F)(F)F)c3)c2cc1OC1CCOC1
2. COc1cc(Nc2ncc3c(n2)-c2ccc(Cl)cc2C(c2c(F)cccc2OC)=NC3)ccc1C(=O)O + COc1cc2nc(C)nc(NC(C)c3cc(N)cc(C(F)(F)F)c3)c2cc1OC1CCOC1
3. COc1cc2nccc(Oc3ccc(NC(=O)C4(C(=O)Nc5ccc(F)cc5)CC4)cc3)c2cc1OC + CNCc1ccccc1-c1csc(C(C)Nc2nc(C)nc3cc(OC)c(OC)cc23)c1
4. CC1OCC2(CCN(c3cnc(Sc4ccnc(N)c4Cl)c(N)n3)CC2)C1N (stereo not given) + COc1cc2nc(C)nc(NC(C)c3cc(N)cc(C(F)(F)F)c3)c2cc1OC1CCOC1
5. CC1OCC2(CCN(c3cnc(Sc4ccnc(N)c4Cl)c(N)n3)CC2)C1N (stereo not given) + C=CC(=O)N1CCN(c2nc(OCC3CCCN3C)nc3c2CCN(c2cccc4cccc(C)c24)C3)CC1CC#N

a:
20.9
37.2
70.7
72.5
63.3
